Numbers sourced from patent US4068070A.

tested on: aortic blood flow; experiment: Effects on aortic blood flow; type: in vivo, mongrel adult dogs; details: 2.0 mg/kg i.v., 5 min
Where a name gives a salt, the structure may show the parent alone.
endpoint_label: Changes (%) of basal values, aortic blood flow

compound	observed
CCOC(=O)N1CCN(C(C#N)c2ccc(OC)c(OC)c2)CC1 (stereo not shown)	+3.7%
COc1ccc(C(C#N)N2CCCN(CC=Cc3ccccc3)CC2)cc1OC (stereo not shown)	+0.8%
COc1ccc(CN2CCNCC2)c(OC)c1OC [Vastarel F, dihydrochloride, reference compound]	+11.0%
COc1ccc(C(C#N)N2CCN(CC(=O)N3CCCC3)CC2)cc1OC (stereo not shown)	+0.7%

###

system: heart rate; experiment: Effects on heart rate; format: in vivo, mongrel adult dogs; details: 6.0 mg/kg i.v., 1 min

compound	Changes(%) of basal values, heart rate
COc1ccc(C(C#N)N2CCNCC2)cc1OC (stereo not drawn)	+3.7%
COc1ccc(C(C#N)N2CCN(CC(=O)N3CCCC3)CC2)cc1OC (stereo not drawn)	+5.1%
COc1ccc(C(C#N)N2CCN(CC=Cc3ccccc3)CC2)cc1OC (stereo not drawn)	+1.5%

###

tested on: coronary sinus out flow; test: Effects on coronary sinus out flow; format: in vivo, mongrel adult dogs; conditions: 2.0 mg/kg i.v., 5 min
Counter-ions that a name gives are not always drawn.
A collection of compounds and their measured Changes(%) of basal values, coronary sinus out flow
endpoint_label: Changes(%) of basal values, coronary sinus out flow

compound	target_desc	observed
CCOC(=O)N1CCN(C(C#N)c2ccc(OC)c(OC)c2)CC1 (stereo not shown)	coronary sinus out flow	+5.4%
COc1ccc(CN2CCNCC2)c(OC)c1OC [Vastarel F, dihydrochloride, reference compound]	coronary sinus out flow	+3.0%
CCOC(=O)CN1CCN(C(C#N)c2ccc(OC)c(OC)c2)CC1 (stereo not shown)	coronary sinus out flow	+8.2%
COc1ccc(C(C#N)N2CCN(CC(=O)N3CCCC3)CC2)cc1OC (stereo not shown)	coronary sinus out flow	+4.9%

###

test system: coronary sinus out flow; experiment: Effects on coronary sinus out flow; format: in vivo, mongrel adult dogs; settings: 2.0 mg/kg i.v., 10 min
Where a name gives a salt, the structure may show the parent alone.
A collection of molecules and their measured Changes(%) of basal values, coronary sinus out flow
endpoint_label: Changes(%) of basal values, coronary sinus out flow

molecule	observed
COc1ccc(CN2CCNCC2)c(OC)c1OC [Vastarel F, dihydrochloride, reference compound]	+9.0%
CCOC(=O)CN1CCN(C(C#N)c2ccc(OC)c(OC)c2)CC1 (stereo not shown)	+5.9%
CCOC(=O)N1CCN(C(C#N)c2ccc(OC)c(OC)c2)CC1 (stereo not shown)	+4.7%
COc1ccc(C(C#N)N2CCN(CC(=O)N3CCCC3)CC2)cc1OC (stereo not shown)	+3.2%
